- SYSTEM_UNDER_TEST: T1, EsCas13d, nuclease-dead (Eubacterium siraeum, UniProt B0MS50, R295A;H300A;R849A;H854A)
- T1 sequence: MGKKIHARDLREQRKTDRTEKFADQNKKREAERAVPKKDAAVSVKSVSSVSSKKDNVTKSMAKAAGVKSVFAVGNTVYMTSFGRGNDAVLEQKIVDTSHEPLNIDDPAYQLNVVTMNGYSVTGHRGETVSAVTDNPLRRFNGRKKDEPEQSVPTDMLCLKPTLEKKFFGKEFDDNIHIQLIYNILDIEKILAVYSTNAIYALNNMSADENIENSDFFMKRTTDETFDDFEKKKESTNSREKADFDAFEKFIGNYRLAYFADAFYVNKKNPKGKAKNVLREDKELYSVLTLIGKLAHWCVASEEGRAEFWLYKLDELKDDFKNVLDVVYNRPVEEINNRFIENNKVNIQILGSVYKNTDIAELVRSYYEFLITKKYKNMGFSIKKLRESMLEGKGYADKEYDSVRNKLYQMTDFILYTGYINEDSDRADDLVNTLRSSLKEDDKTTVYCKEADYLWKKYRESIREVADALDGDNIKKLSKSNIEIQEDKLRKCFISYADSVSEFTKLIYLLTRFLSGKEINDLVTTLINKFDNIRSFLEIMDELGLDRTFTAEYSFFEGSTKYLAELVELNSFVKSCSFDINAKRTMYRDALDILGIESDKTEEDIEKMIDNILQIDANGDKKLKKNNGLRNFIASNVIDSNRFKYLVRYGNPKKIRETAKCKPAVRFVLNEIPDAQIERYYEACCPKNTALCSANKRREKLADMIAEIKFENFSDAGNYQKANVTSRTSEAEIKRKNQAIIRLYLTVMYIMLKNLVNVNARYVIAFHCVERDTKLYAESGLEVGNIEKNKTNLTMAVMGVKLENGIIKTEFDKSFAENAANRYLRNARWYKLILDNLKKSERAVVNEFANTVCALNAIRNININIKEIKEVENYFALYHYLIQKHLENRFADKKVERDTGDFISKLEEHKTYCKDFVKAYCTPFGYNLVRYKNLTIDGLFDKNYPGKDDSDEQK
- PROCEDURE_DETAILS: crRNA (strand 1, pre-loaded); Mg2+; 40 mM Tris-HCl pH 7.5, 150 mM NaCl, 6 mM MgCl2, 1 mM DTT, 0.1% Tween-20, 0.2 mg/ml BSA; 25 C; 10 min per concentration, then washed
- CONDITION_DESCRIPTION: tags: His6-TwinStrep-SUMO cleaved; N-terminal SNAP kept (SNAP-Surface 488); label: 3' end held by stalled T7 RNA polymerase
Here, each record is paired with measured pKd data.
The read-out pKd is expressed as -log10 of concentration in moles per litre.

BINDER	MEASURED_RESULT
target 2 MT 5'PFS UAU 3'PFS AUA (mixed) RNA 1: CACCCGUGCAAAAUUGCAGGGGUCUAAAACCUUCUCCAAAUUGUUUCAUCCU RNA 2: GGGAAUGGAUCCACAUCUACGAAUUCUAUAGGAUGAAACAAUUUGGAGAAGAUAAGAUCGGAAGAGCACACGU	7.39
target 1 insA 3' of 15,insC 3' of 5 (mixed) RNA 1: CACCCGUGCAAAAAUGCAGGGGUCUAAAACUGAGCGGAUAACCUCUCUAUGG RNA 2: GGGAAUGGAUCCACAUCUACGAAUUCGUACCAUAGAGAAGGUUAUCCGCCUCACCGAGAUCGGAAGAGCACACGU	7.78
target 1 MT 5'PFS GUG 3'PFS UUG (mixed) RNA 1: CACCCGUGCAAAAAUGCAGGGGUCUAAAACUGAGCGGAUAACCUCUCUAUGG RNA 2: GGGAAUGGAUCCACAUCUACGAAUUCGUGCCAUAGAGAGGUUAUCCGCUCAUUGAGAUCGGAAGAGCACACGU	8.10
target 1 MT 5'PFS GGC 3'PFS UAC (mixed) RNA 1: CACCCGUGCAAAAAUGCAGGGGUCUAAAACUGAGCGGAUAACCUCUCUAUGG RNA 2: GGGAAUGGAUCCACAUCUACGAAUUCGGCCCAUAGAGAGGUUAUCCGCUCAUACAGAUCGGAAGAGCACACGU	7.72
target 1 MT 5'PFS GUA 3'PFS UGU (mixed) RNA 1: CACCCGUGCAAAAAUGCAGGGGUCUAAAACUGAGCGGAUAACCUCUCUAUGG RNA 2: GGGAAUGGAUCCACAUCUACGAAUUCGUACCAUAGAGAGGUUAUCCGCUCAUGUAGAUCGGAAGAGCACACGU	7.72

Prompt line: Entry target 2 MT 5'PFS CAC 3'PFS AGC (mixed) RNA 1: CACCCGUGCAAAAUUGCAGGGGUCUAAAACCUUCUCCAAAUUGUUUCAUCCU RNA 2: GGGAAUGGAUCCACAUCUACGAAUUCCACAGGAUGAAACAAUUUGGAGAAGAGCAGAUCGGAAGAGCACACGU has what pKd?
Response line: 8.73

Prompt line: What pKd value was documented for this binder, target 2 MT 5'PFS UAC 3'PFS CCG (mixed) RNA 1: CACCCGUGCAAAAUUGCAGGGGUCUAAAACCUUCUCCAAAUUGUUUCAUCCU RNA 2: GGGAAUGGAUCCACAUCUACGAAUUCUACAGGAUGAAACAAUUUGGAGAAGCCGAGAUCGGAAGAGCACACGU ?
Response line: 8.21

Prompt line: Fill blank: measured pKd of the binder target 1 insC 3' of 10,insU 3' of 5 (mixed) RNA 1: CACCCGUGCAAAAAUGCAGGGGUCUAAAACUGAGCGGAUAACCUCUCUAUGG RNA 2: GGGAAUGGAUCCACAUCUACGAAUUCGUACCAUAGAGAGGUUCAUCCGUCUCACCGAGAUCGGAAGAGCACACGU is ____.
Response line: 7.85

Prompt line: Could you tell me which pKd is on file for target 3 insG 3' of 6,insA 3' of 6 (mixed) RNA 1: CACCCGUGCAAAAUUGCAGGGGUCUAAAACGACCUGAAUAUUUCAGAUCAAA RNA 2: GGGAAUGGAUCCACAUCUACGAAUUCGUUUUUGAUCUGAAAUAUUCGAAGGUCUGCAGAUCGGAAGAGCACACGU ?
Response line: 8.06

Prompt line: # query: pKd of entry target 2 MT 5'PFS GGU 3'PFS CCG (mixed) RNA 1: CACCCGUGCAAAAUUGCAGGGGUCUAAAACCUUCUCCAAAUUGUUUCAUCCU RNA 2: GGGAAUGGAUCCACAUCUACGAAUUCGGUAGGAUGAAACAAUUUGGAGAAGCCGAGAUCGGAAGAGCACACGU
Response line: 7.76

Prompt line: I am curious: what pKd value has been reported for target 1 A1G,U19C (mixed) RNA 1: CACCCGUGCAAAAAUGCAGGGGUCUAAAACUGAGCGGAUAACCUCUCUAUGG RNA 2: GGGAAUGGAUCCACAUCUACGAAUUCGUACCACAGAGAGGUUAUCCGCUCGCCGAGAUCGGAAGAGCACACGU ?
Response line: 7.46

Prompt line: Value lookup for pKd; key = target 2 MT 5'PFS AGA 3'PFS CGG (mixed) RNA 1: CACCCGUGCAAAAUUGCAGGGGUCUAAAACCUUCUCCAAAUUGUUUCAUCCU RNA 2: GGGAAUGGAUCCACAUCUACGAAUUCAGAAGGAUGAAACAAUUUGGAGAAGCGGAGAUCGGAAGAGCACACGU
Response line: 8.28

Prompt line: Need pKd of target 1 MT 5'PFS GUA 3'PFS ACG (mixed) RNA 1: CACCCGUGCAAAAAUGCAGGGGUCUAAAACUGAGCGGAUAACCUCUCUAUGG RNA 2: GGGAAUGGAUCCACAUCUACGAAUUCGUACCAUAGAGAGGUUAUCCGCUCAACGAGAUCGGAAGAGCACACGU , thanks.
Response line: 7.96

Prompt line: State the recorded pKd for this entry: target 2 MT 5'PFS AGC 3'PFS UCG (mixed) RNA 1: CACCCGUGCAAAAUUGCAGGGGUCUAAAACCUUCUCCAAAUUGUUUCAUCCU RNA 2: GGGAAUGGAUCCACAUCUACGAAUUCAGCAGGAUGAAACAAUUUGGAGAAGUCGAGAUCGGAAGAGCACACGU
Response line: 7.84

Prompt line: Entry under review: target 1 MT 5'PFS CCU 3'PFS AUA (mixed) RNA 1: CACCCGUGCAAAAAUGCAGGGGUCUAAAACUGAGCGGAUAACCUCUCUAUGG RNA 2: GGGAAUGGAUCCACAUCUACGAAUUCCCUCCAUAGAGAGGUUAUCCGCUCAAUAAGAUCGGAAGAGCACACGU . Reported pKd?
Response line: 7.68
